Biological target: recombinant human secreted phospholipase A2 (Homo sapiens)
Sequence (P14555 21-144): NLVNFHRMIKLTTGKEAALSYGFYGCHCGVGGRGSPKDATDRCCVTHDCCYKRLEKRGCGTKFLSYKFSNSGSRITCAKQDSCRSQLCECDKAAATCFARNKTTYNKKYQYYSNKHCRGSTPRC
Test: chromogenic assay for inhibitors of recombinant human secreted phospholipase A2
Settings: diheptanoyl thio-PC substrate, pH 7.5, 40° C. for 30 minutes, absorbance at 405 nanometers; read-out: Inhibition of human secreted PLA2 IC50 ± mean deviation (3-4 tests)
Measurement kind: IC50
Please give the number followed by its unit.

Q. Write down the reported IC50 (system: recombinant human secreted phospholipase A2 (Homo sapiens)) of CCc1c(/C(=N/O)C(N)=O)c2c(OCC(=O)O)cccc2n1Cc1ccccc1
A. 49 nM
